assay: folding enthalpy; higher = less favourable; fluorescence melt of hairpins on a sequencing array, two-state fit; conditions: sodium 0.088 M
Decision: folding enthalpy compared against -20 kcal/mol; not below it gives 1, below it gives 0.

{"columns": ["residue-sequence", "classification"],
 "data": [
  ["GCGGTTGACCGC ((((....))))", 0],
  ["GTTATGGGAAACCGTAAC ((((.((....)).))))", 0],
  ["GACAATGGAAACATTGCC (.(((((....))))).)", 1],
  ["GATCTCGCGAGAGATC ((((((....))))))", 0],
  ["GGCACAACGAAAGTTGCC (((..(((....))))))", 1],
  ["CGCCGCGGAAACGCCGCG (((.(((....))).)))", 1],
  ["GGCAGCGGAAACGCTACC ((.((((....)))).))", 0],
  ["GCTCGGCGAAAGCTAAGC (((..((....))..)))", 1],
  ["GCTGCCGAAAGGCGAGC ((((((....))).)))", 1],
  ["GCGATACCTCGC ((((....))))", 0],
  ["GCACACGAAAGTGATTGC ((((((....)))..)))", 1],
  ["GGCTACGAAAGTACCGCC ((((((....)))..)))", 0],
  ["GATCACTTTGTGATC ((((((...))))))", 0],
  ["GCCATGCGAAAGCACCGC ((..(((....)))..))", 1],
  ["GTGAACGAAAGTTCACAC ((((((....)))..)))", 1],
  ["GCAATCGAAAGATCGTGC ((((((....)))..)))", 1],
  ["CAATCCGAAAGGCTTG (((.((....)).)))", 1],
  ["GATCCCAGCTGGGATC ((((((....))))))", 0],
  ["GCAGGAACGAAAGTTTGC (((..(((....))))))", 1],
  ["GATCTGCACGCAGATC ((((((....))))))", 0],
  ["GCCAGTACGAAAGTAGGC (((..(((....))))))", 0],
  ["GGTTGGGGAAACCTAGCC ((.(.((....)).).))", 1],
  ["GCTTTTCGAAAGAAGAGC (((.(((....))).)))", 0],
  ["GGATCTACGAAAGTATCC (((..(((....))))))", 1],
  ["GGTGACGGAAACGTTACC (((.(((....))).)))", 0],
  ["GTTTGGGAAACCAAAC ((((((....))))))", 0],
  ["GAACGTGGAAACATGTTC ((((.((....)).))))", 0],
  ["GCACAGCGAAAGCTAAGC ((..(((....)))..))", 1],
  ["GGACCCGAAAGGGTGTCC ((((((....)))..)))", 1],
  ["TAGAGGAAACTCTA (((((....)))))", 1],
  ["GCGAGCGAAAGCTTCCGC ((((((....)))..)))", 1],
  ["GTACGAGGAAACCCGTAC (((((.(....).)))))", 0],
  ["GGCGCTGGAAACGGTGCC (((.(.(....).).)))", 0],
  ["CGCGGAAAAACAACAACCGCG ((.................))", 0],
  ["GCTAGAGGAAACTCTAAC (.(((((....))))).)", 1],
  ["GCGAGTCCTCGC ((((....))))", 0],
  ["GATCAAGAAGTTGATC ((((((....))))))", 0],
  ["GCTAGGAAACTAGC (((((....)))))", 0],
  ["GAAGAAGCGAAAGCTTTC (((..(((....))))))", 1],
  ["GCTTGGCGAAAGCCCGGC ((..(((....)))..))", 1],
  ["GCTTTCGAAAGAAGTAGC ((((((....)))..)))", 0],
  ["GGAGTCGAAAGACGCTCC ((((((....)))..)))", 1],
  ["GAGGCCGAAAGGCGCCTC ((((((....)))..)))", 1],
  ["GATCTAGCTCTAGATC ((((((....))))))", 0],
  ["GGCTAGGGAAACCTGGCC (((.(((....))).)))", 0],
  ["GACCAGCGAAAGCTCGTC (((.(((....))).)))", 1],
  ["GGTCGCACGAAAGTGACC (((..(((....))))))", 1],
  ["GCAAGCCGAAAGGCCTGC (((.(((....))).)))", 0],
  ["GATTTCGGAAACGAAGTC ((.((((....)))).))", 0],
  ["GCCGAGCGAAAGCTCTGC ((.((((....)))).))", 0]
]}
